# Test System: human TRPV1 receptor (Homo sapiens, UniProt Q8NER1, M315I/T336M)
# Construct: expressed in transfected cells; host or cells: HEK-293
# Sequence (Q8NER1 whole entry M315I/T336M): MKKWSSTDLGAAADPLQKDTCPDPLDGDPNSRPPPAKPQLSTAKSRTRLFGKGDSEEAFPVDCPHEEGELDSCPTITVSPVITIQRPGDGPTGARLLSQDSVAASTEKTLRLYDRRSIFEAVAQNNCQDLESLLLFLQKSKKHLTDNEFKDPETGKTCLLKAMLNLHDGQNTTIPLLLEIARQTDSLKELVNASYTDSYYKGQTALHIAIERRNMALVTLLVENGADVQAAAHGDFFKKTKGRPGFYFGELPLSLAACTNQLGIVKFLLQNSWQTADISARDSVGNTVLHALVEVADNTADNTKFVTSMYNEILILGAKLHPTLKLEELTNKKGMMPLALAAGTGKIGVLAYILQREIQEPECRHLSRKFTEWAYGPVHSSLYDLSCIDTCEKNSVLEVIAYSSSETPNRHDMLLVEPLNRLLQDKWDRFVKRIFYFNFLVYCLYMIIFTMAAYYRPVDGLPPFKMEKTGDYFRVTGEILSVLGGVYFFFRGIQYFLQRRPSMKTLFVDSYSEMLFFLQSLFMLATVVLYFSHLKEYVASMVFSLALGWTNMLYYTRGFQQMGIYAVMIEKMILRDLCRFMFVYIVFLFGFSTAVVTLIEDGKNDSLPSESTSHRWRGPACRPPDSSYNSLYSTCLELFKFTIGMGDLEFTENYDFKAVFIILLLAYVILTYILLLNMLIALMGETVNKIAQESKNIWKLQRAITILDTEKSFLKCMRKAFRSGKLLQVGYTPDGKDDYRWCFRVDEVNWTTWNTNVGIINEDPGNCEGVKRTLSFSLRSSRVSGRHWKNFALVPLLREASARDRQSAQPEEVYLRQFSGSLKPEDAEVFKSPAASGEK
# Assay Explanation: FLIPR calcium flux, antagonists to CPC activation of TRPV1
# Assay type: cell-based
# Condition Notes: read-out: % inhibition of CPC activation
// label = condition met if inhibition at 1000 µM is not less than 60%, otherwise condition not met

* CCCC(=O)OC(C)(C)Cc1ccccc1 [Alpha,Alpha-Dimethylphenethyl Butyrate] | condition not met
* CC(=O)CCc1ccc(O)cc1 [4-(4-Hydroxy-phenyl)-butan-2-one] | condition met
* CCCCOC(=O)C(C)C [Butyl Isobutyrate] | condition not met
* CCCCCC=CC(C)=O | condition not met
* COC(=O)CCCc1ccccc1 [Methyl 4-Phenylbutyrate] | condition not met
* COc1ccc(CCC(C)=O)cc1 | condition not met
* NCCc1ccc(O)cc1 | condition met
* CCCCCC=CC(=O)O [2-Octenoic Acid, Predominantly Trans, 2-Octenoic Acid] | condition met
* Nc1ccccc1C(=O)Oc1ccc2ccccc2c1 | condition not met

----------
# Test System: human TRPV1 receptor (Homo sapiens, UniProt Q8NER1, M315I/T336M)
# Construct: expressed in transfected cells; host or cells: HEK-293
# Assay Explanation: FLIPR calcium flux, antagonists to CPC activation of TRPV1
# Format: cell-based
# Condition Notes: compound 1 mM (0.04% for extracts), 30 min preincubation, then CPC 100 uM
Metric: Ca count CPC TRPV1 Receptor Antagonist (count)

* COc1ccc(CCC(C)=O)cc1 | 1218
* CC(=O)[O-].CC(=O)[O-].[Zn+2] [Zinc Acetate] | 1351
* COC(=O)CCCc1ccccc1 [Methyl 4-Phenylbutyrate] | 3469
* CC(=O)CCc1ccc(O)cc1 [4-(4-Hydroxy-phenyl)-butan-2-one] | 1127
* CC1=C(/C=C/C(C)O)C(C)(C)CCC1 (centres unmarked) | 1265

----------
# Test System: human TRPA1 receptor (Homo sapiens, UniProt O75762, K186N/R3C/R58T)
# Construct: expressed in transfected cells; host or cells: HEK-293
# Sequence (O75762 whole entry R3C/R58T/K186N): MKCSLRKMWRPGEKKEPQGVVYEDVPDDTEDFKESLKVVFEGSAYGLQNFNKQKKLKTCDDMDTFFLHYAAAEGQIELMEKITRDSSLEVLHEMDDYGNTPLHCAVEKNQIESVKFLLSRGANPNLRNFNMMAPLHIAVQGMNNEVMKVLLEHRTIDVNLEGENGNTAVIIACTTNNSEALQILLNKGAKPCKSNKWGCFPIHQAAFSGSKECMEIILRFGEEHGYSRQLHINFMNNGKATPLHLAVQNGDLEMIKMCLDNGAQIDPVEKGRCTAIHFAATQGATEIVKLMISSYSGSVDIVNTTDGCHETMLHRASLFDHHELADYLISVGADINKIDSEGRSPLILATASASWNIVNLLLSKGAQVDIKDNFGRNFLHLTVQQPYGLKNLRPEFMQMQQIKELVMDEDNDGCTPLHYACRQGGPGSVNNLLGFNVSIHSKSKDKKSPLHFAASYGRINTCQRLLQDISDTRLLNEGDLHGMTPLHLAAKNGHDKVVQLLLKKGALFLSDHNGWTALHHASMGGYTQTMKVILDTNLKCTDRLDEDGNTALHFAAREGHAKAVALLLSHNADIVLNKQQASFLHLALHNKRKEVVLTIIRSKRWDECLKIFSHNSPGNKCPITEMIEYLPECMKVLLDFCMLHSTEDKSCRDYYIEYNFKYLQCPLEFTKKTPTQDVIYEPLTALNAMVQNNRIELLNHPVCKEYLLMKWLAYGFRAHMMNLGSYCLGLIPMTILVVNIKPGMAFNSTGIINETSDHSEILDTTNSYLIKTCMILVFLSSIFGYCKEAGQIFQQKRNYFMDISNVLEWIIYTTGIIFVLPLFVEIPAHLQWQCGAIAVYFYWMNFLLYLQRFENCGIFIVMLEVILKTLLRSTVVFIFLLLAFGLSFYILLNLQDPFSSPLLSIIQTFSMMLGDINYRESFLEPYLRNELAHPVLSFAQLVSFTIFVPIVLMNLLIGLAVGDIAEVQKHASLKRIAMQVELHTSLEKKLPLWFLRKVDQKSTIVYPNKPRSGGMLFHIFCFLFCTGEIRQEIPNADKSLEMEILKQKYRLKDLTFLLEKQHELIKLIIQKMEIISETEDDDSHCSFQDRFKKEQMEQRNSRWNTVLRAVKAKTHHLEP
# Assay Explanation: FLIPR calcium flux, antagonists to CPC activation of TRPA1
# Assay type: cell-based
# Condition Notes: compound 1 mM (0.04% for extracts), 30 min preincubation, then CPC 100 uM
Listing of recorded Ca count CPC TRPA1 Receptor Antagonist by entry.
Metric: Ca count CPC TRPA1 Receptor Antagonist (count)

- O=C(OC[C@H]1O[C@@H](OC(=O)c2cc(O)c(O)c(OC(=O)c3cc(O)c(O)c(O)c3)c2)[C@H](OC(=O)c2cc(O)c(O)c(OC(=O)c3cc(O)c(O)c(O)c3)c2)[C@@H](OC(=O)c2cc(O)c(O)c(OC(=O)c3cc(O)c(O)c(O)c3)c2)[C@@H]1OC(=O)c1cc(O)c(O)c(OC(=O)c2cc(O)c(O)c(O)c2)c1)c1cc(O)c(O)c(OC(=O)c2cc(O)c(O)c(O)c2)c1: 321
- OC[C@H]1O[C@@H]2O[C@H]3[C@H](O)[C@@H](O)[C@@H](O[C@H]4[C@H](O)[C@@H](O)[C@@H](O[C@H]5[C@H](O)[C@@H](O)[C@@H](O[C@H]6[C@H](O)[C@@H](O)[C@@H](O[C@H]7[C@H](O)[C@@H](O)[C@@H](O[C@H]8[C@H](O)[C@@H](O)[C@@H](O[C@H]1[C@H](O)[C@H]2O)O[C@@H]8CO)O[C@@H]7CO)O[C@@H]6CO)O[C@@H]5CO)O[C@@H]4CO)O[C@@H]3CO: 2324
- CC1CCC(C(C)(C)S)C(=O)C1 (stereo not drawn): 3513
- Cc1occc(=O)c1OC(=O)C(C)C [Maltyl Isobutyrate]: 2882
- CCCOC(=O)c1cc(O)c(O)c(O)c1 [n-propyl gallate]: 1844
- CC1(C)C2CC=C(CO)C1C2 (stereo not drawn): 440

Hey, just so you know, these numbers are from patent US10111819B2.
